- Study System: T1, GST-PSD95 d2 (PDZ domain 2) fusion protein (human, UniProt P78352 147-253)
- T1 construct: domain: d2; not shown: glutathione-S transferase (GST) encoded by the pGEX-3X vector (Pharmacia); short vector-encoded linker
- T1 sequence (P78352 147-253): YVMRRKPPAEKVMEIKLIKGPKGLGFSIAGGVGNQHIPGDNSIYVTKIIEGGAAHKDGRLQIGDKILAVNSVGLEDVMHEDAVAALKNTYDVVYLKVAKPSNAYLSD
- Protocol Description: modified G assay, peptide titrated against a constant amount of immobilized GST-PDZ fusion; Hill fit
Ends that are not written are not given here. * marks the point of attachment. Biotin = O=C1N[C@H]2[C@H](CS[C@H]2CCCCC(=O)*)N1
Measurement Name: EC50 (µM)
# number only, unit µM dropped from output

Task: Indicate its recorded EC50; the binder in question is Biotin-YGRKKRRQRRRIGELQLSIA (Synthetic peptide, HPLC purified; pre-mixed with HRP-streptavidin in the modified G assay; also called Tat-hCLCA1 (SIA))
Output: 3.1
